Parameter: GI50. Scope: all listed entries.
- Test system: IGROV1 ovarian
- assay-notes: NCI tumour cell line growth inhibition, 48 h
property: GI50

compound | result
Cc1nc2cc(Nc3nc(Nc4ccc(F)cc4)nc(N4CCN(C)CC4)n3)ccc2n1Cc1ccccc1 | 2450 nM
COc1cc(C2=NN(c3ccc(S(N)(=O)=O)cc3)C(c3ccc(Cl)cc3)C2)cc(OC)c1OC (centres undefined) | 8090 nM
Oc1c(I)cc(-c2nc3ccccc3s2)cc1CN(Cc1ccccn1)Cc1ccccn1 | 517 nM
CC(=O)c1cc2c(c3ccsc13)-c1ccccc1CC2 | 36000 nM
C1=C(c2ccccc2)C(c2ccc(OCCN3CCCCC3)cc2)Oc2ccccc21 (centres undefined) | 2070 nM
CCCCCCCCCCCCCC(=O)C(C)N (centres undefined) | 3680 nM
CNC(=O)OC1C(O[C@H]2C[C@H]3[C@@H]4CC=C5C[C@@H](O)CC[C@]5(C)[C@H]4CC[C@]3(C)[C@H]2[C@H](C)C(=O)CCC(C)C)OCC(O)C1OC1OCC(O)C(O)C1OC(=O)c1ccc(OC)cc1 (some centres undefined) | 22.4 nM
CCOC(=O)N[C@H]1CCc2c(Br)c(OC)c(OC)c(OC)c2-c2ccc(SC)c(=O)cc21 | 18.9 nM
C[C@@H](Oc1ccc2[nH]nc(/C=C/c3cnn(CCO)c3)c2c1)c1c(Cl)cncc1Cl | 135 nM

* * *

- System: OVCAR-3 ovarian
- assay-notes: NCI tumour cell line growth inhibition, 48 h
Quick reference: GI50 of the listed items.
property: GI50

compound | result
CCCCCCCCCCCCCC(=O)C(C)N (centres undefined) | 14100 nM
CC1SC(c2c(Cl)cccc2Cl)N(NC(=O)C(O)c2ccccc2)C1=O (centres undefined) | 54100 nM
Oc1c(I)cc(-c2nc3ccccc3s2)cc1CN(Cc1ccccn1)Cc1ccccn1 | 534 nM
Cc1ccc2c(c1)O/C(=C\c1ccc([N+](=O)[O-])o1)C2=O | 1530 nM
CNC(=O)OC1C(O[C@H]2C[C@H]3[C@@H]4CC=C5C[C@@H](O)CC[C@]5(C)[C@H]4CC[C@]3(C)[C@H]2[C@H](C)C(=O)CCC(C)C)OCC(O)C1OC1OCC(O)C(O)C1OC(=O)c1ccc(OC)cc1 (some centres undefined) | 1030 nM
N#C/C(N)=C(\C#N)N=Cc1csc2ccccc12 | 19100 nM
NC(=S)N/N=C\c1nccc2c(N)cccc12 | 306 nM
COc1cc2cc(Oc3ccc(NC(=O)Nc4ccc(Cl)c(C(F)(F)F)c4)cc3)c(C)nc2cc1OC | 1160 nM
C[C@]12C3CC[C@@]4(CO)C[C@]3(CCC1[C@](C)(C(=O)O)CC[C@@H]2O)CC4=O (some centres undefined) | > 100000 nM

* * *

- Test system: SK-OV-3 ovarian
- assay-notes: NCI tumour cell line growth inhibition, 48 h; in the data active = GI50 below about 0.43 µM; inactive = the rest
Classes used: 1 = active, 0 = inactive

molecule | target-desc | label
COc1ccc(C(=O)COc2cccc(/C=C3\CSc4ccc(Cl)cc4C3=O)c2)cc1 | SK-OV-3 ovarian | 0
[C-]#[N+][C@]12C(=O)[C@H](CCC1(C)C)C(C)(C)[C@H]1C(=O)N(C)c3cccc2c31 | SK-OV-3 ovarian | 0
O=C(CNc1ncco1)Nc1ccc(S(=O)(=O)c2ccc(NC(=O)CNc3ncco3)cc2)cc1 | SK-OV-3 ovarian | 0
Cc1ccc(C2C3=C(N=c4s/c(=C/c5ccc(Br)cc5)c(=O)n42)c2ccc4ccccc4c2OCC3)cc1 (configuration not stated) | SK-OV-3 ovarian | 0
O=C(Nc1ccccc1O)c1ccc(CNC(=O)c2sccc2Nc2ccnc(C(F)(F)F)c2)cc1 | SK-OV-3 ovarian | 0
Cc1ccc(NC(=O)c2[nH]c(SCCN(C)C)nc2-c2ccc(F)cc2)cc1C#Cc1cnc2cccnn12 | SK-OV-3 ovarian | 0
CNC(=O)OC1C(O[C@H]2C[C@H]3[C@@H]4CC=C5C[C@@H](O)CC[C@]5(C)[C@H]4CC[C@]3(C)[C@H]2[C@H](C)C(=O)CCC(C)C)OCC(O)C1OC1OCC(O)C(O)C1OC(=O)c1ccc(OC)cc1 (some centres not stated) | SK-OV-3 ovarian | 1
O=[N+]([O-])[O-].O=[N+]([O-])[O-].[Au].[Au].c1ccc([P-]c2ccccc2)cc1.c1ccc([P-]c2ccccc2)cc1 | SK-OV-3 ovarian | 0
O=C(O)c1cc(Cc2ccc(O)c(C(=O)O)c2)ccc1O (tested in a mixture with another compound) | SK-OV-3 ovarian | 0
COc1cc(-c2cc(/C=C3\C(=O)Nc4ccccc43)[nH]n2)cc(OC)c1OC | SK-OV-3 ovarian | 0
Nc1ccc2ccc(NS(=O)(=O)N3CCCCC3)cc2c1 | SK-OV-3 ovarian | 0
COc1cc(NCc2ccccc2O)c2ncccc2c1 | SK-OV-3 ovarian | 0
CN1CCN(CCNc2ccc(CO)c3sc4ccccc4c(=O)c23)CC1 | SK-OV-3 ovarian | 0
C[C@]12C3CC[C@@]4(CO)C[C@]3(CCC1[C@](C)(C(=O)O)CC[C@@H]2O)CC4=O (some centres not stated) | SK-OV-3 ovarian | 0
CS(=O)(=O)CCn1c(=O)c(Oc2ccc(F)cc2F)cc2cnc(NC3CCOCC3)nc21 | SK-OV-3 ovarian | 0
COC(=O)OCc1ccc2c(c1)C(=O)c1c-2n(CCCBr)c(=O)c2cc([N+](=O)[O-])ccc12 | SK-OV-3 ovarian | 0
CC(C)(C)OC(=O)CN1CCc2c(sc3ncnc(N/N=C/c4cccc5ccccc45)c23)C1 | SK-OV-3 ovarian | 0

* * *

- System: A498 renal
- assay-notes: NCI tumour cell line growth inhibition, 48 h

compound | censoring-sign | TGI (µM)
COc1cc(-c2cc(/C=C3\C(=O)Nc4ccccc43)[nH]n2)cc(OC)c1OC | = | 7.71
CC(O)(CNS(=O)(=O)c1ccccc1)c1ccccc1 (stereo not given) | > | 100
O=C(O)Cn1c(=O)[nH]c(=O)c2[nH]cnc21 | > | 100
Oc1c(I)cc(-c2nc3ccccc3s2)cc1CN(Cc1ccccn1)Cc1ccccn1 | = | 4.81
O=c1oc2ccccc2c(O)c1C(c1ccc2c(c1)Cc1ccccc1-2)c1c(O)c2ccccc2oc1=O | > | 100

* * *

The entries below are paired with their reported TGI.
- Test system: HL-60(TB) leukemia
- assay-notes: NCI tumour cell line growth inhibition, 48 h

compound | censoring-sign | TGI [µM]
CC(=O)c1ccc2c(c1)N(CCCN1CCN(CCO)CC1)c1ccccc1C2 | = | 29.2
C1=C(c2ccccc2)C(c2ccc(OCCN3CCCCC3)cc2)Oc2ccccc21 (stereo not given) | = | 3.76
Cc1nc2ncn3c(c-2c1Cc1ccccc1)NC=C(O)N3 | > | 100
CCCCCC(O)(CCCCC)CCCCCCCCC1=C(O)c2[nH]c(=O)ccc2C(=O)C1=O | = | 23.6
COc1cc(C)c(C)c(OC(=O)c2c(C)c(C)c(OC)c(C)c2OC)c1C | = | 32.6

* * *

- System: T-47D breast
- assay-notes: NCI tumour cell line growth inhibition, 48 h
property: log10 of TGI (log10 of the value in µM)

compound | log10 of TGI
CCCCCCCCCCCCCC(=O)C(C)N (configuration not stated) | 0.74
O=C(Nc1ccccc1O)c1ccc(CNC(=O)c2sccc2Nc2ccnc(C(F)(F)F)c2)cc1 | 1.48
CCOC(=O)c1sc2nc(-c3ccccc3)nn2c1CBr | 0.76
COc1ccc(C(=O)N(C(=O)N2CCN(c3ccccc3)CC2)S(=O)(=O)c2ccccc2)cc1 | 1.73
C1=C(c2ccccc2)C(c2ccc(OCCN3CCCCC3)cc2)Oc2ccccc21 (configuration not stated) | 0.44
N#Cc1c(N)nc2c(c1-c1ccc(Br)cc1)CSc1ccccc1-2 | 1.76
CN1CCN(c2ccc(NC3=C(Cl)C(=O)c4ncccc4C3=O)cc2C#N)CC1 | 0.72
CC(CN1CCN(CC(C)Nc2ccnc3cc(Cl)ccc23)CC1)Nc1ccnc2cc(Cl)ccc12 (configuration not stated) | 1.87
OCC#Cc1ccccc1C#Cc1ccc(C#Cc2ccccc2C#CCO)s1 | 1.73
CC(=O)/C=C/C1=C(c2cccs2)c2ccccc2CC1 | 1.73

* * *

- Test system: SW-620 colon
- assay-notes: NCI tumour cell line growth inhibition, 48 h
Measured TGI of individual entries

compound | TGI
O=[N+]([O-])c1ccc(/C=C(/c2ccc([N+](=O)[O-])o2)S(=O)(=O)c2ccccc2)o1 | 5.55 µM
COC(=O)c1ccccc1NC(=O)C(=O)CC(=O)CC(c1ccccc1)c1c(O)c2ccccc2oc1=O (stereo not given) | > 100 µM
CN1CCN(CCNc2ccc(CO)c3sc4ccccc4c(=O)c23)CC1 | 14.1 µM
Cc1cnoc1NS(=O)(=O)c1ccc(Nc2nnc(/C=C/c3c(O)ccc4ccccc34)c(=O)n2N)cc1 | > 100 µM
O=C(O)C(O)C(O)C(O)C(=O)CO (stereo not given) | > 100 µM
CC(=O)c1sc(Nc2ccc(Cl)c(Cl)c2)nc1C | > 100 µM
COC(=O)OCc1ccc2c(c1)C(=O)c1c-2n(CCCBr)c(=O)c2cc([N+](=O)[O-])ccc12 | > 100 µM
CCSC1=N/C(=C/c2ccccc2O)C(=O)N1 | > 100 µM
CC(=O)N/N=C1/CC[C@@]2(C)C(=CC[C@H]3C4CCC(C(C)CCCC(C)C)[C@@]4(C)CCC32)C1(C)C (stereo not given in full) | > 100 µM
Cn1nc2ccc3nccc(N(CCO)CCO)c3c2n1 | > 100 µM
